Tested on: A549 cell line
Assay: MTT cytotoxicity assay, A549
Type: cell-based, human
Conditions: A549, 65-h treatment, MTT; Cmax 100 µM; read-out: IC50abs
pIC50: −log10 of the molar value.
Assay metric: pIC50

Molecule	pIC50
O=C1NC2(C(=O)N1c1ccccc1)C1C=CC(C1)C2I (centres unmarked) [Compound 41a]	< 4.00

[in] Which pIC50 value belongs to CC1=C(C)CC2(CC1)NC(=S)N(c1c(C)cccc1C)C2=O (racemic) [Compound 61] ?
[out] ~5.00

[in] Which pIC50 value belongs to COc1ccc(N2C(=O)C3(CCC(C)=C(C)C3)NC2=S)cc1 (racemic) [Compound 60] ?
[out] 4.28

[in] Which pIC50 value belongs to Cc1cccc(N2C(=O)C3(CC4C=CC3C4)NC2=S)c1 (centres unmarked) [Compound 37a] ?
[out] < 4.00

[in] Which pIC50 value belongs to O=C1NC2(CC3C=CC2C3)C(=O)N1c1ccccc1 (centres unmarked) [Compound 28b] ?
[out] < 4.00

[in] Which pIC50 value belongs to CC1=C(C)CC2(CC1)NC(=S)N(c1cccc(C)c1)C2=O (racemic) [Compound 56] ?
[out] < 4.00

[in] Which pIC50 value belongs to COc1ccc(N2C(=O)C3(CC4C=CC3C4)NC2=S)cc1 (centres unmarked) [Compound 39b] ?
[out] < 4.00

[in] Which pIC50 value belongs to COc1cccc(N2C(=O)C3(CC4C=CC3C4)NC2=S)c1 (centres unmarked) [Compound 38a] ?
[out] < 4.00

[in] Which pIC50 value belongs to CC1=C(C)CC2(CC1)NC(=S)N(c1ccccc1Cl)C2=O (racemic) [Compound 55] ?
[out] ~5.00

[in] Which pIC50 value belongs to O=C1N(c2ccccc2F)C(=S)NC12CC1C=CC2C1 (centres unmarked) [Compound 35b] ?
[out] < 4.00

[in] Which pIC50 value belongs to O=C1NC2(C(=O)N1c1ccccc1)C1C=CC(C1)C2Br (centres unmarked) [Compound 40a] ?
[out] < 4.00

[in] Which pIC50 value belongs to CC1=C(C)CC2(CC1)NC(=S)N(c1ccc(F)cc1)C2=O (racemic) [Compound 58] ?
[out] 4.63

[in] Which pIC50 value belongs to CC1=C(C)CC2(CC1)NC(=S)N(c1ccccc1F)C2=O (racemic) [Compound 54] ?
[out] 4.31

[in] Which pIC50 value belongs to CC1=C(C)CC2(CC1)NC(=S)N(c1ccc(Cl)cc1)C2=O (centres unmarked) [Compound 59] ?
[out] 4.58
